Parameter: MFI normalized to WT. Scope: all listed entries.
- target_of_assay: T1, cynomolgus CD161 (cynomolgus)
- T1 construct: UniProt A0A2K5WYI1; also called cynoCD161
- T1 chain: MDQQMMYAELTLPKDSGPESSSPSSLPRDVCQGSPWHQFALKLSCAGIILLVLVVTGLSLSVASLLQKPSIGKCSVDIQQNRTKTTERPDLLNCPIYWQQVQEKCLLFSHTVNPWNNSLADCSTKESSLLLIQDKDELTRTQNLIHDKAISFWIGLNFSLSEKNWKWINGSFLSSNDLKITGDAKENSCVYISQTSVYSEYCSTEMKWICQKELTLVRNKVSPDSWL
- experiment_summary: flow, Jurkat, 100 nM Ab

KW1.2.1 (antibody, V domains shown) VH: EVQLVESGGGLVQPGGSLRLSCAASGSTFSSYAMSWVRQAPGKGLEWVSTISGSGGSTYYADSVKGRFTISRDNSRNTLYLQMNSLRAEDTAVYYCARGGLIPSGFDYWGQGTLVTVSS VL: DIQMTQSPSSPSASVGDRVTITCRASQSISSYLNWYQQKPGKAPKLLIYAASSLLSGVPSRFSGSGSGTDFTLTISSLQPEDFATYYCQQTYSTPLTFGQGTKVEIK
103
KW9.3.3 (antibody, V domains shown) VH: EVQLVESGGGLVQPGGSLRLSCAASGFTFSSYAMSWVRQAPGKGLEWVSAISGSGGRTYYADSVKGRFTISRDNSKNTLYLQMNSLRAEDTAMYYCARGPGYMYLYGDSFFEYWGQGTLVTVSS VL: DIQMAQSPSSLSASVGDRVTITCRASQGISSYLNWYQQKPGKAPKLLIYAASSLQSGVPSRFSGSGYGTDFTLTISSLQPEDFATYYCQQSYSTPLTFGQGTKVEIK
0.89
KM12.2.3 (antibody, human IgG1, V domains shown) VH: EVQLVESGGGLVQPGGSLRLSCAASGFTFSSYAMSWIRQAPGKGLEWVSAISGSGGSIYYADSVKGRFTISRDNSKNTLYLQMNSLRAEDTAVYYCARGYSDSYFYGPYYTFDYWGQGTLVTVSS VL: DIQMTQSPSSLSASVGDRVTITCRASQGISSYLNWYQQKPGKAPKLLIYAASSLQSGVSSRFSGSGSGTDFTLTISSLQPEDFATYYCQQSYNTPLTFGQGTKVEIK
11.9

Switching to the query record.
Request: Bench note: what MFI normalized to WT did KW1.3.12 (antibody, human IgG1, V domains shown) VH: EVQLVESGGGLVQPGGSLRLSCAASGFTFSSYAMSWVRQAPGKGLEWVSTISGSGGSTYYADSVKGRFTISRDNSRNTLYLQMNSLRAEDTAVYYCARGGLIPSGFDYWGQGTLVTVSS VL: DIQMTQSPSSLSASVGDRVTITCRASQSISSYLNWYQQKPGKAPKLLIYAASSLLSGVPSRFSGSGSGTDFTLTISSLQPEDFATYYCQQTYSAPLTFGQGTKVEIK show?
Result: 117
